Task for the reader: assign each of the following compounds its reported EC50.
test system: HCV 1b-377-neo replicon cells; experiment: HCV Replicon assay, HCV 1b-377-neo replicon cells; assay type: cell-based, HCV 1b genotype; details: Hepatitis C virus, Table 2, read-out: Range (EC50 against HCV 1b)

Problem: Quick check: EC50 of COC(=O)N[C@@H](C(=O)N1CCC[C@H]1c1ncc(-c2ccc(-c3ccc(-c4cnc([C@@H]5CCCN5C(=O)Cc5cccnc5)[nH]4)cc3C)cc2)[nH]1)c1ccccc1 ?
Solution: 0.001 to 0.999 nM

Problem: COC(=O)N[C@H](C(=O)N1CCC[C@H]1c1ncc(-c2ccc(-c3ccc(-c4cnc([C@@H]5CCCN5C(=O)[C@@H](NC(=O)OC)C(C)C)[nH]4)cc3CN(C)C)cc2)[nH]1)C(C)C ?
Solution: 100 to 999 nM

Problem: COC(=O)N[C@H](C(=O)N1CCC[C@H]1c1ncc(-c2ccc(-c3ccc(-c4cnc([C@@H]5CCCN5C(=O)[C@@H](NC(=O)OC)C(C)C)[nH]4)cc3C(N)=O)cc2)[nH]1)C(C)C ?
Solution: 1000 to 10000 nM
